assay: solvent given as SMILES; conditions: in ClC(Cl)Cl
Category | rule: reported fluorescence lifetime within range, see band A: < 1 ns; band B: ≥ 1 ns and < 5 ns; band C: ≥ 5 ns

[
  {
    "smiles_entry": "c1ccc(-c2nc(-c3ccc(N4CCCC4)cc3)cc(-c3ccc4ccccc4c3)n2)cc1",
    "cat": "band B"
  },
  {
    "smiles_entry": "CN(C)c1ccc(/C=C/c2cc[n+](CCCCCCCCCCCC[n+]3ccc(/C=C/c4ccc(N(C)C)cc4)cc3)cc2)cc1",
    "cat": "band A"
  },
  {
    "smiles_entry": "COc1ccc2cc3c(C)cc(=O)oc3cc2c1",
    "cat": "band A"
  },
  {
    "smiles_entry": "Cc1ccc(C#Cc2ccc(C#Cc3ccc(C#Cc4ccccc4C#N)cc3C#N)cc2C#N)cc1",
    "cat": "band B"
  },
  {
    "smiles_entry": "COc1ccc(-c2cc(C)nc(-c3ccc(-n4c5ccccc5c5ccccc54)cc3)n2)cc1",
    "cat": "band B"
  },
  {
    "smiles_entry": "CCCCCCCCN1c2ccc(C#Cc3ccc(C(F)(F)F)cc3)cc2Sc2cc(C=O)ccc21",
    "cat": "band C"
  },
  {
    "smiles_entry": "F[B-]1(F)OC(c2ccc(N3CCCC3)cc2)=Cc2cccc[n+]21",
    "cat": "band B"
  },
  {
    "smiles_entry": "O=S(=O)(c1ccc(N2c3ccccc3Oc3ccccc32)cc1)c1ccc(N2c3ccccc3Oc3ccccc32)cc1",
    "cat": "band C"
  },
  {
    "smiles_entry": "CCCCCCN1C(=O)C(c2ccc(-n3c4ccccc4c4ccccc43)cc2)=C(c2ccc(-n3c4ccccc4c4ccccc43)cc2)C1=O",
    "cat": "band C"
  }
]

###

experiment: solvent given as SMILES; settings: in ClCCl
// Condition not met strictly below 1 ns in fluorescence lifetime; Condition met otherwise

[
  {
    "compound": "c1ccc2c(c1)OP1(=NP(Oc3ccc4ccc5cccc6ccc3c4c56)(Oc3ccc4ccc5cccc6ccc3c4c56)=NP(Oc3ccc4ccc5cccc6ccc3c4c56)(Oc3ccc4ccc5cccc6ccc3c4c56)=N1)Oc1ccccc1-2",
    "cat": "Condition met"
  },
  {
    "compound": "CCCCCCCCCCOc1ccc(C#Cc2ccc(C#Cc3ccc(OCCCCCCCCCC)c(OCCCCCCCCCC)c3)c3nc4c5ccccc5c5ccccc5c4nc23)cc1OCCCCCCCCCC",
    "cat": "Condition met"
  },
  {
    "compound": "COc1ccc(C2=Cc3ccccc3P2(=O)c2ccccc2)cc1 (stereo unspecified)",
    "cat": "Condition met"
  },
  {
    "compound": "Cn1c2ccccc2c2cc(/C=C/C3=[O+][B-](F)(F)OC(/C=C/c4ccc5c(c4)c4ccccc4n5C)=C3c3ccccc3)ccc21",
    "cat": "Condition met"
  },
  {
    "compound": "CC1=C(c2ccc(N(c3ccccc3)c3ccccc3)cc2)C(C)=[N+]2C1=C(c1c(-c3ccccn3)nc3ccccn13)c1c(C)c(-c3ccc(N(c4ccccc4)c4ccccc4)cc3)c(C)n1[B-]2(F)F",
    "cat": "Condition not met"
  },
  {
    "compound": "F[B-]12Oc3ccccc3-c3c4[n+]5c(c([n+]31)-c1ccccc1O2)-c1ccccc1O[B-]5(F)Oc1ccccc1-4",
    "cat": "Condition met"
  }
]

###

assay: solvent given as SMILES; conditions: in CN(C)C=O
Would you mind classing the entries by fluorescence lifetime? Ranges: low (below 3 ns), moderate (3 ns to below 4 ns), high (4 ns or more)

[
  {
    "smiles_entry": "COc1cc(/C=C2/SC(=O)NC2=O)cc(OC)c1O",
    "cat": "high"
  },
  {
    "smiles_entry": "CN(C)c1ccc(/C=C/C(=C(C#N)C#N)c2ccc3c4c(cccc24)CC3)cc1",
    "cat": "moderate"
  },
  {
    "smiles_entry": "CCN(CC)c1ccc(/C=C/c2ccc(-c3ccc(/C=C/c4ccc(N(CC)CC)cc4)s3)s2)cc1",
    "cat": "low"
  },
  {
    "smiles_entry": "CCOc1cc2c(cc1/C=C/C(=C(C#N)C#N)c1ccccc1)c1ccccc1n2CC",
    "cat": "high"
  },
  {
    "smiles_entry": "O=C1NC(=O)c2ccc3c4ccc5c6c(ccc(c7ccc1c2c73)c64)C(=O)N(c1ccc(Cl)cc1)C5=O",
    "cat": "moderate"
  },
  {
    "smiles_entry": "N#CC(C#N)=C(/C=C/c1ccc(N(c2ccccc2)c2ccccc2)cc1)c1ccc2c3c(cccc13)CC2",
    "cat": "low"
  }
]

###

experiment: solvent given as SMILES; conditions: in ClCCl
measurement_name: log10(fluorescence lifetime) (log10 of the value in ns)

[
  {
    "smiles_entry": "COc1cc2c(cc1/C=C/C(=C(C#N)C#N)c1ccccc1)c1ccccc1n2C",
    "log10(fluorescence lifetime)": 0.81
  },
  {
    "smiles_entry": "FC(F)(F)c1ccc(-n2c(-c3ccc(N(c4ccc(-c5ccc(N(c6ccc(-c7nc8c9ccccc9c9ccccc9c8n7-c7ccc(C(F)(F)F)cc7)cc6)c6ccc(-c7nc8c9ccccc9c9ccccc9c8n7-c7ccc(C(F)(F)F)cc7)cc6)cc5)cc4)c4ccc(-c5nc6c7ccccc7c7ccccc7c6n5-c5ccc(C(F)(F)F)cc5)cc4)cc3)nc3c4ccccc4c4ccccc4c32)cc1",
    "log10(fluorescence lifetime)": 0.21
  },
  {
    "smiles_entry": "c1ccc(-c2cc3c(-c4ccccc4)c4cccc5c(-c6ccccc6)cc6c(-c7ccccc7)c7cccc2c7c3c6c54)cc1",
    "log10(fluorescence lifetime)": 0.47
  },
  {
    "smiles_entry": "CC(C)(C)C#Cc1cc2c(C#CC(C)(C)C)c(C#CC(C)(C)C)c3cc(C#CC(C)(C)C)cc4c(C#CC(C)(C)C)c(C#CC(C)(C)C)c(c1)c2c34",
    "log10(fluorescence lifetime)": 1.35
  },
  {
    "smiles_entry": "CC(C)[Si]1(C(C)C)c2cc(C#N)ccc2-c2ccc(N(C)C)cc21",
    "log10(fluorescence lifetime)": 0.41
  },
  {
    "smiles_entry": "O=C1NC(=O)c2c1c1c3ccccc3[nH]c1c1[nH]c3ccccc3c21",
    "log10(fluorescence lifetime)": 0.85
  }
]

###

assay: solvent given as SMILES; conditions: in CC#N
Measured log10 of fluorescence lifetime by item
measurement_name: log10 of fluorescence lifetime (log10 of the value in ns)

[
  {
    "molecule": "CN(C)c1ccc(-c2nc3cccnc3[nH]2)cc1",
    "log10 of fluorescence lifetime": 0.20
  },
  {
    "molecule": "C=Cc1ccc(OC)c(OC)c1",
    "log10 of fluorescence lifetime": 0.51
  },
  {
    "molecule": "Cc1ccc2nc3[nH]c(=O)[nH]c(=O)c3nc2c1C",
    "log10 of fluorescence lifetime": 0.38
  },
  {
    "molecule": "COc1ccc(C#Cc2ccc(C#Cc3ccc(C#Cc4ccccc4C#N)cc3C#N)cc2C#N)cc1",
    "log10 of fluorescence lifetime": 0.11
  },
  {
    "molecule": "CNCCCC1c2ccccc2C=Cc2ccccc21",
    "log10 of fluorescence lifetime": 0.38
  },
  {
    "molecule": "CCN(CC)c1ccc(OC)c(C=O)c1",
    "log10 of fluorescence lifetime": 1.10
  },
  {
    "molecule": "COC(=O)C(Cc1ccc2oc(-c3ccncc3)nc2c1)NC(=O)OC(C)(C)C (stereo unspecified)",
    "log10 of fluorescence lifetime": 0.08
  },
  {
    "molecule": "CN(C)c1ccc(/C=C/C=C2\\CC/C(=C\\c3ccc(N(C)C)cc3)C2=O)cc1",
    "log10 of fluorescence lifetime": -0.04
  },
  {
    "molecule": "c1ccc2c(c1)[nH]c1ncccc12",
    "log10 of fluorescence lifetime": 1.12
  },
  {
    "molecule": "Cc1ccc(-c2cc(-c3ccc(N(C)C)cc3)c3c(N)nc(N4CCCC4)c(C#N)c3n2)cc1",
    "log10 of fluorescence lifetime": 0.86
  },
  {
    "molecule": "Cc1ccc(C2=C3C=CC(Cl)=[N+]3[B-](F)(F)n3c(Cl)ccc32)cc1",
    "log10 of fluorescence lifetime": 0.27
  }
]

###

# reported fluorescence lifetime; entries follow
assay: solvent given as SMILES; details: in CCOC(C)=O
measurement_name: fluorescence lifetime (ns)

[
  {
    "compound": "CCCCCCCCCCCCCCCCOc1cc(C#Cc2ccc3ccccc3c2)c(OCCCCCCCCCCCCCCCC)cc1C#Cc1ccc(C=C(C#N)C#N)cc1",
    "measurement_name": "fluorescence lifetime",
    "recorded_number": 1.05
  },
  {
    "compound": "CCC1=C(C)C2=C(C)c3c(C)c(CC)c(C)n3[B-](F)(F)[N+]2=C1C",
    "measurement_name": "fluorescence lifetime",
    "recorded_number": 5.78
  },
  {
    "compound": "COc1ccc(C2=C3C(C)=CC(C)=[N+]3[B-](F)(F)n3c(/C=C/c4ccc(N(C)C)cc4)cc(C)c32)cc1",
    "measurement_name": "fluorescence lifetime",
    "recorded_number": 3.31
  },
  {
    "compound": "COC(=O)C(Cc1ccc2oc(-c3ccc(N(C)C)cc3)nc2c1)NC(=O)OC(C)(C)C (stereo not given)",
    "measurement_name": "fluorescence lifetime",
    "recorded_number": 1.19
  },
  {
    "compound": "CCN(CC)c1cccc(C=O)c1",
    "measurement_name": "fluorescence lifetime",
    "recorded_number": 14.3
  },
  {
    "compound": "c1ccc(N2c3ccc4ccccc4c3-c3c4ccccc4nc[n+]3[B-]2(c2ccccc2)c2ccccc2)cc1",
    "measurement_name": "fluorescence lifetime",
    "recorded_number": 0.57
  },
  {
    "compound": "CC1=[N+]2C(=C(c3ccc(Br)cc3)c3ccc(C)n3[B-]2(F)F)C=C1c1cc2n(c1)[B-](F)(F)[N+]1=CC=CC1=C2c1c(C)cc(C)cc1C",
    "measurement_name": "fluorescence lifetime",
    "recorded_number": 0.938
  },
  {
    "compound": "COc1ccc(C#Cc2ccc(C#N)cc2)cc1",
    "measurement_name": "fluorescence lifetime",
    "recorded_number": 0.38
  },
  {
    "compound": "CN(C)c1ccc(/C=C/C=C2\\CC/C(=C\\c3ccc(N(C)C)cc3)C2=O)cc1",
    "measurement_name": "fluorescence lifetime",
    "recorded_number": 0.71
  },
  {
    "compound": "CN(C)c1ccc(C#Cc2ccccc2)cc1",
    "measurement_name": "fluorescence lifetime",
    "recorded_number": 1.16
  }
]

src = the Deep4Chem optical property database
